// data source = PubChem BioAssay AID1259407

Tested on: CCRIS mutagenicity, Ames/micronucleus/aberration tests
PROTOCOL_DESCRIPTION: CCRIS mutagenicity studies
CONDITION_NOTES: Test System: AMES SALMONELLA TYPHIMURIUM; Strain/Indicator: TA1537; Metabolic Activation: NONE; Method: STANDARD PLATE
Description: The CCRIS database contains chemical records with carcinogenicity, mutagenicity, tumor promotion, and tumor inhibition test results. It was developed by the National Cancer Institute (NCI). Data are derived from studies cited in primary journals, current awareness tools, NCI reports, and other sources. Test results have been reviewed by experts in carcinogenesis and mutagenesis. CCRIS provides historical information from the years 1985 - 2011. It is no longer updated. […]
Calls of active or inactive are those of the source. How the calls were made is not given here. *1 amine or outer side, *2 acyl side, *3 side chain or, on linkers, in order; H or OH if unused. Where a SMILES comes first, the peptide text is derived from it. Bridges are numbered along the chain shown (N, C = ends). Roman numbers before positions name the chains, in order. [ ]: non-standard residue; d: D form. Actinocin(9to1) = Cc1c2oc3c(C)ccc(C(=O)[*:1])c3nc-2c(C(=O)[*:2])c(N)c1=O; NMeV = CN[C@H](C(=O)O)C(C)C; Sar = CNCC(=O)O
Lab note: assign the record to one of T = active, F = inactive

Query: What was the test verdict on `CC(C)(C)OC(=O)O/N=C(/C#N)c1ccccc1` ?
Result: F

Query: Per the records of this test, what outcome belongs to Cc1c2oc3c(C)ccc(C(=O)N[C@@H]4C(=O)N[C@H](C(C)C)C(=O)N5CCC[C@H]5C(=O)N(C)CC(=O)N(C)[C@@H](C(C)C)C(=O)O[C@@H]4C)c3nc-2c(C(=O)N[C@@H]2C(=O)N[C@H](C(C)C)C(=O)N3CCC[C@H]3C(=O)N(C)CC(=O)N(C)[C@@H](C(C)C)C(=O)O[C@@H]2C)c(N)c1=O (I: T[dV]P[Sar][NMeV] / II: T[dV]P[Sar][NMeV]; ester I:1-I:C, II:1-II:C; linker I:N-II:N via Actinocin(9to1)) ?
Result: F

Query: Which outcome was entered for the compound `O=NO` in this test?
Result: F

Query: Assay outcome for `C=C(C)C(=O)OCC` : what was it?
Result: F

Query: So what was the verdict on `NNC(=O)CNc1ccc2ccccc2c1` in this test?
Result: F

Query: I would be grateful if you could indicate the recorded call for `CN(C)C(=O)c1nc(CNC(=O)CN)n(-c2ccc(Cl)cc2C(=O)c2ccccc2Cl)n1` .
Result: F

Query: What did this assay record as the result for CC1=CCC(C(C)(C)O)CC1 (centres undefined) ?
Result: F

Query: Would you mind telling me which call this test gave `CC(C)OC(=O)C(C)(C)Oc1ccc(C(=O)c2ccc(Cl)cc2)cc1` ?
Result: F

Query: What was the test verdict on `COc1cc(O)ccc1Nc1c2ccccc2nc2ccccc12` ?
Result: T

Query: Identify the outcome logged in this assay for the compound shown: `O=C(O)c1cc([N+](=O)[O-])cc2cccnc12`
Result: F

Query: Hey, what did the test say about `CN1C(=O)CN=C(c2ccccc2)c2cc(Cl)ccc21` ?
Result: F

Query: Please share the test call associated with CCN(C)C(=O)Oc1ccc2c(c1)C1(C)CCN(C)C1N2C (centres undefined) .
Result: F

Query: Any idea what this test logged for `O=S(=O)(NO)c1cccc2cccnc12` ?
Result: F

Query: In this assay, the call recorded for `C/C=N/O` was what?
Result: F

Query: What was the test verdict on CCC1CCC(CCC(=O)[O-])C1.CCC1CCC(CCC(=O)[O-])CC1.[Cu+2] (centres undefined) ?
Result: F

Query: So what was the verdict on `Nc1c(Br)cc([N+](=O)[O-])cc1[N+](=O)[O-]` in this test?
Result: T

Query: For this compound, state the assay outcome: `COc1cc(N)cc(OC)c1N`
Result: F

Query: # lookup: test call for `O=[N+]([O-])/C(Br)=C\c1ccccc1`
Result: F

Query: Could you check what this test reported for `C[C@@H]1O[C@@H](OC[C@H]2O[C@@H](Oc3c(-c4ccc(OCCO)c(OCCO)c4)oc4cc(OCCO)cc(O)c4c3=O)[C@H](O)[C@@H](O)[C@@H]2O)[C@H](O)[C@H](O)[C@H]1O` ?
Result: F

Query: Please indicate how the test categorized `OC(O)C(Cl)(Cl)Cl` .
Result: F

Query: What outcome does the record of this test show for `C=C(C)C(=O)OCC(C)(C)C` ?
Result: F

Query: For `Nc1ccc(Nc2c3ccccc3nc3ccccc23)cc1` , which call appears in the assay record?
Result: T

Query: Recorded call for CCCCCCCCCC/C=C/C1CC(=O)OC1=O (centres undefined) ?
Result: F

Query: Returns: the outcome recorded for CCNCC#CC(C)(C)OC(=O)C(O)(c1ccccc1)C1CCCCC1 (centres undefined) in this assay.
Result: F

Query: For this compound, state the assay outcome: `O=C(CCl)Nc1snc2cc(Cl)ccc12`
Result: T

Query: recorded result category for O=C1NC(=O)C(c2ccccc2)(c2ccc(O)cc2)N1 (centres undefined) in this test
Result: F

Query: Tell me the recorded outcome of this test for `C[C@H](CCC(=O)NCCS(=O)(=O)O)[C@H]1CC[C@H]2[C@@H]3C[C@H](O)[C@@H]4C[C@H](O)CC[C@]4(C)[C@H]3CC[C@]12C` .
Result: F

Query: Test call for this compound, please: `OC[C@@H](O)[C@@H](O)[C@H](O)[C@H](O)CO`
Result: F

Query: What classification did `C=C1/C(=C\C=C2/CCC[C@]3(C)[C@@H]([C@H](C)CC[C@@H](O)C(C)C)CC[C@@H]23)C[C@@H](O)C[C@@H]1O` end up with in this test?
Result: F

Query: # fetch the recorded call for CC(C)=CC1C(C(=O)OCc2cccc(Oc3ccccc3)c2)C1(C)C (centres undefined) here
Result: F

Query: Test call for this compound, please: `Nc1ccc(N=Nc2ccc(N)cc2)cc1`
Result: F

Query: # lookup: test call for `Cc1cc(C(=O)NNCc2ccccc2)no1`
Result: F

Query: Hi team, can someone confirm the assay call for c1ccc2c(c1)cc1c3c2ccc2cccc(c23)C2OC12 (centres undefined) ?
Result: T

Query: Please indicate how the test categorized `CCCS(=O)(=O)n1ncc(Cl)c(Cl)c1=O` .
Result: F

Query: Please state the recorded outcome for this compound: `CCCCCCCCCCCC(=O)OCCS(=O)(=O)O`
Result: F

Query: Kindly provide the recorded test outcome for the following compound: `N=c1ccc2nc3ccc(N)cc3sc-2c1`
Result: F

Query: Identify the outcome logged in this assay for the compound shown: `CCC(=O)Oc1ccc(/C(CC)=C(\CC)c2ccc(OC(=O)CC)cc2)cc1`
Result: F

Query: What did this assay record as the result for CC(C)NCC1CCc2cc(CO)c([N+](=O)[O-])cc2N1 (centres undefined) ?
Result: F

Query: Could you please tell me the result logged for CC1COCc2cc3c(cc21)C(C)(C)C(C)C3(C)C (centres undefined) in this assay?
Result: F

Query: State the result this test recorded for `C[Si]1(C)O[Si](C)(C)O[Si](C)(C)O[Si](C)(C)O1` .
Result: F

Query: Test call, this compound: `O=S(=O)(Oc1ccc(Cl)cc1Cl)c1cccc2cccnc12`
Result: F

Query: Would you mind telling me which call this test gave `COc1cc(NS(C)(=O)=O)ccc1Nc1c2ccc(N=[N+]=[N-])cc2nc2c(C)cccc12` ?
Result: T

Query: Hi, do you know how `Cc1cccn2c(=O)c(-c3nnn[nH]3)cnc12` came out in this test?
Result: F

Query: Could you please tell me the result logged for `CC(C)CC(=O)OCc1cocc2c(C=O)ccc1-2` in this assay?
Result: F
